Below: a set of entries, each annotated with reported inhibition at 10 µM.
Molecular target: 5-HT2C (Homo sapiens, UniProt P28335)
Sequence (P28335 33-458, species assumed): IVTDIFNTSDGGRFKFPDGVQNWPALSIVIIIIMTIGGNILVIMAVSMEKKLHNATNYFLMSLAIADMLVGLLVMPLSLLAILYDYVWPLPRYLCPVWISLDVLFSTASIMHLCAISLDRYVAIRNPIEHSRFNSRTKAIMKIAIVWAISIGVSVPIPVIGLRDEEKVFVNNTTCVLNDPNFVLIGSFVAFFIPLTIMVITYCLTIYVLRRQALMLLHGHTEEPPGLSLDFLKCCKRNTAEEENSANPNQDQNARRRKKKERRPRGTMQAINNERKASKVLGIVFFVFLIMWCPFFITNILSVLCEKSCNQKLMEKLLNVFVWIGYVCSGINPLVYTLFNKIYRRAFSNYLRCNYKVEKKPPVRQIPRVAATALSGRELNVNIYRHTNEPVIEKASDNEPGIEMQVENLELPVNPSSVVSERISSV
Assay: Primary screening: inhibition of radioligand binding at 5-HT2C (NIMH PDSP)
Conditions: read-out: % Inhibition of radioligand binding 5-HT2C
READOUT KIND: inhibition at 10 µM (%)

{"COMPOUND": "O=c1cc(Cc2cccs2)oc2cccc(O)c12 [Compound 22r]", "VAL": 23.5}
{"COMPOUND": "O=c1cc(CCc2cccc(O)c2)oc2cccc(O)c12 [Compound 22c]", "VAL": 30.4}
{"COMPOUND": "O=c1cc(CCCc2ccccc2)oc2cccc(O)c12 [Compound 22h]", "VAL": 7.9}
{"COMPOUND": "O=c1cc(CCc2ccccc2O)oc2cccc(O)c12 [Compound 22b]", "VAL": 23.8}
{"COMPOUND": "O=c1cc(Cc2ccccc2)oc2cccc(O)c12 [Compound 22g, 2-benzyl-5-hydroxy-4H-chromen-4-one]", "VAL": 24.8}
